target: SARS-CoV-2 Mac1 (Severe acute respiratory syndrome coronavirus 2); assay: biochemical; details: read-out: %inhibition
PROPERTY_NAME: inhibition at 100 µM (%)
Write the value in % as a bare number.

Given the entry NC(=O)CN1CCCC1=O [Piracetam] , report its measured inhibition at 100 µM.
9.88

###

target: SARS-CoV-2 Mac1 (Severe acute respiratory syndrome coronavirus 2, UniProt P0DTD1); assay: biochemical; details: read-out: %inhibition
Where a name gives a salt, the structure may show the parent alone.
Label rule, in plain words: inhibition at 100 µM of 1% and up is Y, under 1% is N.

Does the compound Cc1ccc(/C(=C\CN2CCCC2)c2ccccn2)cc1 [Triprolidine Hydrochloride] have recorded inhibition at 100 µM that is 1% or more?
Y

Does the compound Cn1cnc2c(F)c(Nc3ccc(Br)cc3F)c(C(=O)NOCCO)cc21 have recorded inhibition at 100 µM that is 1% or more?
Y

Others:
Does the compound CC(=O)OCC(=O)[C@H]1CC[C@H]2[C@@H]3CCC4=CC(=O)CC[C@]4(C)[C@H]3CC[C@]12C [Deoxycorticosterone acetate] have recorded inhibition at 100 µM that is 1% or more?
Y

Does the compound NS(=O)(=O)c1cc(C2(O)NC(=O)c3ccccc32)ccc1Cl (stereo not shown) have recorded inhibition at 100 µM that is 1% or more?
Y

Does the compound CCCCNc1ccc(C(=O)OCCN(C)C)cc1 [Tetracaine HCl] have recorded inhibition at 100 µM that is 1% or more?
Y

Does the compound COc1cc2nccc(Oc3ccc(NC(=O)Nc4cc(C)on4)c(Cl)c3)c2cc1OC have recorded inhibition at 100 µM that is 1% or more?
Y
